System: Streptococcus pyogenes
Test: Antibacterial activity against constitutive MLS resistant Streptococcus pyogenes by agar microdilution method
Format: functional
PROPERTY NAME: MIC (µg/mL)
Report the figure in µg/mL without appending any unit label.

Query: Data request, read-out MIC, for O=C(O)c1cn(C2CC2)c2cc(N3CCNCC3)c(F)cc2c1=O
Result: 0.5

Continuing:
Query: Data request, read-out MIC, for CC[C@H]1OC(=O)[C@H](C)[C@@H](O[C@H]2C[C@@](C)(OC)[C@@H](OCCCC(=O)NCCNc3cc4c(cc3F)c(=O)c(C(=O)O)cn4C3CC3)[C@H](C)O2)[C@H](C)[C@@H](O[C@@H]2O[C@H](C)C[C@H](N(C)C)[C@H]2O)[C@](C)(O)C[C@@H](C)CN(C)[C@H](C)[C@@H](O)[C@]1(C)O
Result: 16

----------
System: Streptococcus pyogenes
Experiment: Antibacterial activity against Streptococcus pyogenes with inducible resistance to MLS by agar microdilution method
Assay type: functional
Listing of entries alongside the reported MIC.
Report the figure in µg/mL without appending any unit label.

Query: Data request, read-out MIC, for CCOC(=O)c1cn(CC)c2ccc(N3CCN(CCO[C@H]4[C@H](C)O[C@@H](O[C@H]5[C@H](C)[C@@H](O[C@@H]6O[C@H](C)C[C@H](N(C)C)[C@H]6O)[C@](C)(O)C[C@@H](C)CN(C)[C@H](C)[C@H]6OC(=O)O[C@]6(C)[C@@H](CC)OC(=O)[C@@H]5C)C[C@@]4(C)OC)CC3)cc2c1=O
Result: 1

Query: Similarly, CC[C@H]1OC(=O)[C@H](C)[C@@H](O[C@H]2C[C@@](C)(OC)[C@@H](OCCCC(=O)NCCOCCOCCNc3cc4c(=O)c(C(=O)O)cn(C5CC5)c4cc3Cl)[C@H](C)O2)[C@H](C)[C@@H](O[C@@H]2O[C@H](C)C[C@H](N(C)C)[C@H]2O)[C@](C)(O)C[C@@H](C)CN(C)[C@H](C)[C@@H](O)[C@]1(C)O ?
Result: 0.5

Field: next compound
Query: Data request, read-out MIC, for CC[C@H]1OC(=O)[C@H](C)[C@@H](O[C@H]2C[C@@](C)(OC)[C@@H](OCCNCCNc3cc4c(=O)c(C(=O)O)cn(C5CC5)c4cc3Cl)[C@H](C)O2)[C@H](C)[C@@H](O[C@@H]2O[C@H](C)C[C@H](N(C)C)[C@H]2O)[C@](C)(O)C[C@@H](C)CN(C)[C@H](C)[C@@H](O)[C@]1(C)O
Result: 1

----------
Listing of entries alongside the reported MIC.
System: Streptococcus pyogenes
Test: Antibacterial activity against Streptococcus pyogenes with inducible resistance to MLS by agar microdilution method
Type: functional
Report the figure in µg/mL without appending any unit label.

Query: Data request, read-out MIC, for CC[C@H]1OC(=O)[C@H](C)[C@@H](O[C@H]2C[C@@](C)(OC)[C@@H](OCCN3CCN(c4ccc5c(c4)c(=O)c(C(=O)O)cn5CC)CC3)[C@H](C)O2)[C@H](C)[C@@H](O[C@@H]2O[C@H](C)C[C@H](N(C)C)[C@H]2O)[C@](C)(O)C[C@@H](C)CN(C)[C@H](C)[C@@H](O)[C@]1(C)O
Result: 0.25

Continuing:
Query: Data request, read-out MIC, for CC[C@H]1OC(=O)[C@H](C)[C@@H](O[C@H]2C[C@@](C)(OC)[C@@H](OCCN3CCN(c4ccc5c(c4)c(=O)c(C(=O)O)cn5CC)CC3)[C@H](C)O2)[C@H](C)[C@@H](O[C@@H]2O[C@H](C)C[C@H](N(C)C)[C@H]2O)[C@](C)(O)C[C@@H](C)CN(C)[C@H](C)[C@H]2OC(=O)O[C@@]21C
Result: 4

Query: Similarly, CC[C@H]1OC(=O)[C@H](C)[C@@H](O[C@H]2C[C@@](C)(OC)[C@@H](OCCCC(=O)NCCNc3cc4c(=O)c(C(=O)O)cn(C5CC5)c4cc3Cl)[C@H](C)O2)[C@H](C)[C@@H](O[C@@H]2O[C@H](C)C[C@H](N(C)C)[C@H]2O)[C@](C)(O)C[C@@H](C)CN(C)[C@H](C)[C@@H](O)[C@]1(C)O ?
Result: 0.25

----------
Tested on: Streptococcus pyogenes
Test: Antibacterial activity against constitutive MLS resistant Streptococcus pyogenes by agar microdilution method
Type: functional
Listing of entries alongside the reported MIC.
Report the figure in µg/mL without appending any unit label.

// solved cases for MIC follow
Query: Data request, read-out MIC, for CC[C@H]1OC(=O)[C@H](C)[C@@H](O[C@H]2C[C@@](C)(OC)[C@@H](OCCNCCNc3cc4c(cc3F)c(=O)c(C(=O)O)cn4C3CC3)[C@H](C)O2)[C@H](C)[C@@H](O[C@@H]2O[C@H](C)C[C@H](N(C)C)[C@H]2O)[C@](C)(O)C[C@@H](C)CN(C)[C@H](C)[C@H]2OC(=O)O[C@@]21C
Result: 8

Query: Similarly, CC[C@H]1OC(=O)[C@H](C)[C@@H](O[C@H]2C[C@@](C)(OC)[C@@H](OCCN3CCN(c4ccc5c(c4)c(=O)c(C(=O)O)cn5CC)CC3)[C@H](C)O2)[C@H](C)[C@@H](O[C@@H]2O[C@H](C)C[C@H](N(C)C)[C@H]2O)[C@](C)(O)C[C@@H](C)CN(C)[C@H](C)[C@@H](O)[C@]1(C)O ?
Result: 64

Query: Similarly, CC[C@H]1OC(=O)[C@H](C)C(=O)[C@H](C)[C@@H](O[C@@H]2O[C@H](C)C[C@H](N(C)C)[C@H]2O)[C@](C)(OC)C[C@@H](C)C(=O)[C@H](C)[C@H]2N(CCCCn3cnc(-c4cccnc4)c3)C(=O)O[C@]12C ?
Result: 4

Query: Similarly, CC[C@H]1OC(=O)[C@H](C)C(=O)[C@H](C)[C@@H](O[C@@H]2O[C@H](C)C[C@H](N(C)C)[C@H]2O)[C@](C)(OCC=Cc2cnc3ccccc3c2)C[C@@H](C)C(=O)[C@H](C)[C@H]2NC(=O)O[C@@]21C ?
Result: 1

Query: Similarly, CC[C@H]1OC(=O)[C@H](C)[C@@H](O[C@H]2C[C@@](C)(OC)[C@@H](OCCCC(=O)NCCNc3cc4c(=O)c(C(=O)O)cn(C5CC5)c4cc3Cl)[C@H](C)O2)[C@H](C)[C@@H](O[C@@H]2O[C@H](C)C[C@H](N(C)C)[C@H]2O)[C@](C)(O)C[C@@H](C)CN(C)[C@H](C)[C@@H](O)[C@]1(C)O ?
Result: 2

Query: Similarly, CC[C@H]1OC(=O)[C@H](C)[C@@H](O[C@H]2C[C@@](C)(OC)[C@@H](OCCNCCNc3cc4c(cc3F)c(=O)c(C(=O)O)cn4C3CC3)[C@H](C)O2)[C@H](C)[C@@H](O[C@@H]2O[C@H](C)C[C@H](N(C)C)[C@H]2O)[C@](C)(O)C[C@@H](C)CN(C)[C@H](C)[C@@H](O)[C@]1(C)O ?
Result: 1

Continuing:
Query: Data request, read-out MIC, for CCOC(=O)c1cn(CC)c2ccc(N3CCN(CCO[C@H]4[C@H](C)O[C@@H](O[C@H]5[C@H](C)[C@@H](O[C@@H]6O[C@H](C)C[C@H](N(C)C)[C@H]6O)[C@](C)(O)C[C@@H](C)CN(C)[C@H](C)[C@H]6OC(=O)O[C@]6(C)[C@@H](CC)OC(=O)[C@@H]5C)C[C@@]4(C)OC)CC3)cc2c1=O
Result: 64

Query: Similarly, CC[C@H]1OC(=O)[C@H](C)[C@@H](O[C@H]2C[C@@](C)(OC)[C@@H](OCCNCCOCCNc3cc4c(=O)c(C(=O)O)cn(C5CC5)c4cc3Cl)[C@H](C)O2)[C@H](C)[C@@H](O[C@@H]2O[C@H](C)C[C@H](N(C)C)[C@H]2O)[C@](C)(O)C[C@@H](C)CN(C)[C@H](C)[C@@H](O)[C@]1(C)O ?
Result: 1

----------
System: Streptococcus pyogenes
Assay: Antibacterial activity against constitutive MLS resistant Streptococcus pyogenes by agar microdilution method
Type: functional
Listing of entries alongside the reported MIC.
Report the figure in µg/mL without appending any unit label.

// solved cases for MIC follow
Query: Data request, read-out MIC, for CC[C@H]1OC(=O)[C@H](C)[C@@H](O[C@H]2C[C@@](C)(OC)[C@@H](OCCNCCOCCOCCNc3cc4c(=O)c(C(=O)O)cn(C5CC5)c4cc3Cl)[C@H](C)O2)[C@H](C)[C@@H](O[C@@H]2O[C@H](C)C[C@H](N(C)C)[C@H]2O)[C@](C)(O)C[C@@H](C)CN(C)[C@H](C)[C@H]2OC(=O)O[C@@]21C
Result: 1

Query: Similarly, CC[C@H]1OC(=O)[C@H](C)[C@@H](O[C@H]2C[C@@](C)(OC)[C@@H](OCCNCCOCCNc3cc4c(cc3F)c(=O)c(C(=O)O)cn4C3CC3)[C@H](C)O2)[C@H](C)[C@@H](O[C@@H]2O[C@H](C)C[C@H](N(C)C)[C@H]2O)[C@](C)(O)C[C@@H](C)CN(C)[C@H](C)[C@H]2OC(=O)O[C@@]21C ?
Result: 32

Field: next compound
Query: Data request, read-out MIC, for CC[C@H]1OC(=O)[C@H](C)[C@@H](O[C@H]2C[C@@](C)(OC)[C@@H](OCCNCCOCCOCCNc3cc4c(=O)c(C(=O)O)cn(C5CC5)c4cc3Cl)[C@H](C)O2)[C@H](C)[C@@H](O[C@@H]2O[C@H](C)C[C@H](N(C)C)[C@H]2O)[C@](C)(O)C[C@@H](C)CN(C)[C@H](C)[C@@H](O)[C@]1(C)O
Result: 2
